# tested-on: D(2) dopamine receptor (Homo sapiens)
# Sequence (P14416 whole entry): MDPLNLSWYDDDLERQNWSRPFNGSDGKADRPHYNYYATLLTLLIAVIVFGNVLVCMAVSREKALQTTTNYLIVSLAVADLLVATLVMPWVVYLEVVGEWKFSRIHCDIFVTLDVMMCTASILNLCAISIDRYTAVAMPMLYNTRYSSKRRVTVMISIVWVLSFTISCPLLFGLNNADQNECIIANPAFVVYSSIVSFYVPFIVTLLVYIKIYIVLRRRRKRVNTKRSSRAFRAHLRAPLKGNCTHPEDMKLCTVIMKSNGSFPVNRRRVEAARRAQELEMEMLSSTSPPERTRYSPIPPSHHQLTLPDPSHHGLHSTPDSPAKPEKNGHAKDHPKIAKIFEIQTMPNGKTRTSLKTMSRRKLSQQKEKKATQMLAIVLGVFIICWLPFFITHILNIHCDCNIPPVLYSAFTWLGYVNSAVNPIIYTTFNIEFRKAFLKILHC
# assay-method-text: Displacement of [3H]-spiperone from human dopamine D2L receptor expressed in CHO FlpIn cell membrane measured after 3 hrs by topcount scintillation counting
# experimental-conditions: read-out: Ki
compounds and their reported Ki

IN: Find the recorded Ki belonging to O=C(CCCCCCC(=O)NCCCN1CCN(C2=Nc3cc(Cl)ccc3Nc3ccccc32)CC1)NCCCN1CCN(C2=Nc3cc(Cl)ccc3Nc3ccccc32)CC1 and report it.
OUT: 1.41 nM

IN: Next entry: O=C(CCCCC(=O)NCCCN1CCN(C2=Nc3cc(Cl)ccc3Nc3ccccc32)CC1)NCCCN1CCN(C2=Nc3cc(Cl)ccc3Nc3ccccc32)CC1
OUT: 3.6 nM

IN: Next entry: O=C(CCCCCCCCCCCCCCCCC(=O)NCCCN1CCN(C2=Nc3cc(Cl)ccc3Nc3ccccc32)CC1)NCCCN1CCN(C2=Nc3cc(Cl)ccc3Nc3ccccc32)CC1
OUT: 269 nM

IN: Next entry: O=C(CCCCCCCCC(=O)NCCCN1CCN(C2=Nc3cc(Cl)ccc3Nc3ccccc32)CC1)NCCCN1CCN(C2=Nc3cc(Cl)ccc3Nc3ccccc32)CC1
OUT: 1.35 nM

IN: Next entry: CCCCCCCCCC(=O)NCCCN1CCN(C2=Nc3cc(Cl)ccc3Nc3ccccc32)CC1
OUT: 9.1 nM
